Test system: Hs 746T (human gastric carcinoma cell line)
Test: 48 hr CTG viability assay, Hs 746T
Format: cell-based
Settings: Hs746T, 48 hr CTG, read-out: Hs 746T IC50
pIC50: −log10 of the molar value.

compound | pIC50
Cc1ccc2cc1CNC(=O)[C@H](CCc1ccccc1)NC(=O)[C@@H](NC(=O)CCNCc1ccc(-c3ccncc3)cc1)CC(=O)N1CCCC(CCO2)C1 (stereo partly drawn) | > 7.00
Cc1ccc2cc1CNC(=O)[C@H](CCc1cccnc1)NC(=O)[C@@H](NC(=O)Cc1ccc(N)cc1C)CC(=O)N1CCCC(CCO2)C1 (stereo partly drawn) | > 7.00
COc1ccccc1CCCOCCC(=O)N[C@H]1CC(=O)N2CCCC(CCOc3ccc(C)c(c3)CNC(=O)[C@H](CCc3ccccc3)NC1=O)C2 (stereo partly drawn) | > 7.00
Cc1ccc2cc1CNC(=O)[C@H](CCc1ccccc1)NC(=O)[C@@H](NC(=O)Cc1ccc3ncccc3c1)CC(=O)N1CCCC(CCO2)C1 (stereo partly drawn) | > 7.00
Cc1ccc2cc1CNC(=O)[C@H](CCc1ccccc1)NC(=O)[C@@H](NC(=O)CCNCc1ccc(N3CCN(Cc4ccccc4)CC3)cc1)CC(=O)N1CCCC(CCO2)C1 (stereo partly drawn) | > 7.00
COc1cccc(CCCOCCC(=O)N[C@H]2CC(=O)N3CCCC(CCOc4ccc(C)c(c4)CNC(=O)[C@H](CCc4ccccc4)NC2=O)C3)c1 (stereo partly drawn) | > 7.00
Cc1ccc2cc1CNC(=O)[C@H](CCc1ccccc1)NC(=O)[C@@H](NC(=O)CCNC(=O)c1cccc(OCC(C)C)c1)CC(=O)N1CCCC(CCO2)C1 (stereo partly drawn) | > 7.00
Cc1ccc2cc1CNC(=O)[C@H](CCc1ccccc1)NC(=O)[C@@H](NCC(C)(C)N)CC(=O)N1CCCC(CCO2)C1 (stereo partly drawn) | 5.30 to 6.00
Cc1ccc2cc1CNC(=O)[C@H](CCc1ccccc1)NC(=O)[C@@H](NCC(C)(C)CO)CC(=O)N1CCCC(CCO2)C1 (stereo partly drawn) | > 7.00
Cc1ccc2cc1CNC(=O)[C@H](CCc1ccccc1)NC(=O)[C@@H](NC(=O)CCNC1CCC1)CC(=O)N1CCCC(CCO2)C1 (stereo partly drawn) | > 7.00
Cc1ccc2cc1CNC(=O)[C@H](CCN1C[C@@H]3C[C@H]1CO3)NC(=O)[C@@H](NC(=O)Cc1cn3ccsc3n1)CC(=O)N1CCCC(CCO2)C1 | 6.30 to 7.00
CCN1CCC(F)(C(=O)N[C@H]2CC(=O)N3CCCC(CCOc4ccc(C)c(c4)CNC(=O)[C@H](CCc4ccccc4)NC2=O)C3)CC1 (stereo partly drawn) | > 7.00

meta.source: patent US20240415819A1
